# Test system: Staphylococcus epidermidis
# TEST_SUMMARY: Antibacterial activity against Staphylococcus epidermidis ATCC 49134 after 18 hrs by microdilution method
# Assay type: functional
# CONDITION: ATCC 49134, 18 h
REPORTED_ENDPOINT: MIC (µg/mL)
Report the value in µg/mL with no unit label.

CHEMICAL_STRING: COC(=O)[C@H](Cc1ccc(O)cc1)NCc1c2c(O)c3c(O)c(C)c4c(c3c1O)C(=O)[C@@](C)(O/C=C/[C@H](OC)[C@@H](C)[C@@H](OC(C)=O)[C@H](C)[C@H](O)[C@H](C)[C@@H](O)[C@@H](C)/C=C/C=C(/C)C(=O)N2)O4
TARGET_OF_ASSAY: Staphylococcus epidermidis
REPORTED_ENDPOINT: MIC
READOUT_VALUE: 0.125

# ---- query compound ----
Using the record for COC(=O)[C@H](Cc1c[nH]c2ccccc12)NCc1c2c(O)c3c(O)c(C)c4c(c3c1O)C(=O)[C@@](C)(O/C=C/[C@H](OC)[C@@H](C)[C@@H](OC(C)=O)[C@H](C)[C@H](O)[C@H](C)[C@@H](O)[C@@H](C)/C=C/C=C(/C)C(=O)N2)O4 , state its measured MIC.
0.016

###

# TEST_SUMMARY: Solubility in water at pH 7 by UV-vis spectrophotometric analysis
# Assay type: physicochemical
// criterion not met strictly below 60 µg/mL in solubility; criterion met otherwise

Example entries and their recorded answers appear below.
CHEMICAL_STRING: CCOC(=O)[C@H](Cc1c[nH]c2ccccc12)NCc1c2c(O)c3c(O)c(C)c4c(c3c1O)C(=O)[C@@](C)(O/C=C/[C@H](OC)[C@@H](C)[C@@H](OC(C)=O)[C@H](C)[C@H](O)[C@H](C)[C@@H](O)[C@@H](C)/C=C/C=C(/C)C(=O)N2)O4
CLASS_NAME: criterion not met

CHEMICAL_STRING: CO[C@H]1/C=C/O[C@@]2(C)Oc3c(C)c(O)c4c(O)c(c(CN[C@@H](Cc5ccccc5)C(=O)OCc5ccccc5)c(O)c4c3C2=O)NC(=O)/C(C)=C\C=C\[C@H](C)[C@H](O)[C@@H](C)[C@@H](O)[C@@H](C)[C@H](OC(C)=O)[C@@H]1C
CLASS_NAME: criterion not met

CHEMICAL_STRING: CCOC(=O)[C@H](CCCNC(=N)N)NCc1c2c(O)c3c(O)c(C)c4c(c3c1O)C(=O)[C@@](C)(O/C=C/[C@H](OC)[C@@H](C)[C@@H](OC(C)=O)[C@H](C)[C@H](O)[C@H](C)[C@@H](O)[C@@H](C)/C=C/C=C(/C)C(=O)N2)O4
CLASS_NAME: criterion met

CHEMICAL_STRING: CCOC(=O)[C@H](CCCCN)NCc1c2c(O)c3c(O)c(C)c4c(c3c1O)C(=O)[C@@](C)(O/C=C/[C@H](OC)[C@@H](C)[C@@H](OC(C)=O)[C@H](C)[C@H](O)[C@H](C)[C@@H](O)[C@@H](C)/C=C/C=C(/C)C(=O)N2)O4
CLASS_NAME: criterion met

CHEMICAL_STRING: CCOC(=O)[C@H](Cc1ccc(O)cc1)NCc1c2c(O)c3c(O)c(C)c4c(c3c1O)C(=O)[C@@](C)(O/C=C/[C@H](OC)[C@@H](C)[C@@H](OC(C)=O)[C@H](C)[C@H](O)[C@H](C)[C@@H](O)[C@@H](C)/C=C/C=C(/C)C(=O)N2)O4
CLASS_NAME: criterion not met

Moving on to another compound below.
Exam item: decide whether the reported solubility for CO[C@H]1/C=C/O[C@@]2(C)Oc3c(C)c(O)c4c(O)c(c(CN[C@@H](Cc5c[nH]c6ccccc56)C(=O)OCc5ccccc5)c(O)c4c3C2=O)NC(=O)/C(C)=C\C=C\[C@H](C)[C@H](O)[C@@H](C)[C@@H](O)[C@@H](C)[C@H](OC(C)=O)[C@@H]1C is at least 60 µg/mL.
criterion not met

###

# Test system: Staphylococcus aureus
# TEST_SUMMARY: Antibacterial activity against Staphylococcus aureus ATCC 6538 after 18 hrs by microdilution method
# Type: functional
# CONDITION: ATCC 6538, 18 h
Each entry below lists one item and its recorded MIC value.
Note: unit mg/L is implicit; provide only the numeric part.

CHEMICAL_STRING: CO[C@H]1/C=C/O[C@@]2(C)Oc3c(C)c(O)c4c(O)c(c(/C=N/N5CCN(C)CC5)c(O)c4c3C2=O)NC(=O)/C(C)=C\C=C\[C@H](C)[C@H](O)[C@@H](C)[C@@H](O)[C@@H](C)[C@H](OC(C)=O)[C@@H]1C
VALUE_UNIT: mg/L
READOUT_VALUE: 0.008

Given CCOC(=O)[C@H](Cc1ccc(O)cc1)NCc1c2c(O)c3c(O)c(C)c4c(c3c1O)C(=O)[C@@](C)(O/C=C/[C@H](OC)[C@@H](C)[C@@H](OC(C)=O)[C@H](C)[C@H](O)[C@H](C)[C@@H](O)[C@@H](C)/C=C/C=C(/C)C(=O)N2)O4 , respond with its MIC.
0.5

###

# Tested on: Staphylococcus aureus
# TEST_SUMMARY: Antibacterial activity against methicillin resistant Staphylococcus aureus isolate 3 after 18 hrs by microdilution method
# Format: functional
# CONDITION: isolate 3, 18 h
REPORTED_ENDPOINT: MIC (µg/mL)
Respond with the bare value in µg/mL.

Check the records and state MIC for COC(=O)[C@H](Cc1cnc[nH]1)NCc1c2c(O)c3c(O)c(C)c4c(c3c1O)C(=O)[C@@](C)(O/C=C/[C@H](OC)[C@@H](C)[C@@H](OC(C)=O)[C@H](C)[C@H](O)[C@H](C)[C@@H](O)[C@@H](C)/C=C/C=C(/C)C(=O)N2)O4
1

###

# TEST_SUMMARY: Octanol-water partition coefficient, logP of the compound after 1 hr by UV-vis spectrophotometric analysis
# Assay type: physicochemical
REPORTED_ENDPOINT: logP at 1 h
# respond with the number and nothing more

CHEMICAL_STRING: COC(=O)[C@H](Cc1ccc(O)cc1)NCc1c2c(O)c3c(O)c(C)c4c(c3c1O)C(=O)[C@@](C)(O/C=C/[C@H](OC)[C@@H](C)[C@@H](OC(C)=O)[C@H](C)[C@H](O)[C@H](C)[C@@H](O)[C@@H](C)/C=C/C=C(/C)C(=O)N2)O4
logP at 1 h: 1.88
--
CHEMICAL_STRING: CCOC(=O)[C@H](CCCNC(=N)N)NCc1c2c(O)c3c(O)c(C)c4c(c3c1O)C(=O)[C@@](C)(O/C=C/[C@H](OC)[C@@H](C)[C@@H](OC(C)=O)[C@H](C)[C@H](O)[C@H](C)[C@@H](O)[C@@H](C)/C=C/C=C(/C)C(=O)N2)O4
logP at 1 h: 2.22

Entry CO[C@H]1/C=C/O[C@@]2(C)Oc3c(C)c(O)c4c(O)c(c(CN[C@@H](Cc5ccccc5)C(=O)OC(C)(C)C)c(O)c4c3C2=O)NC(=O)/C(C)=C\C=C\[C@H](C)[C@H](O)[C@@H](C)[C@@H](O)[C@@H](C)[C@H](OC(C)=O)[C@@H]1C needs its logP at 1 h filled in; supply it.
2.66

Tell me measured logP at 1 h for CCOC(=O)[C@H](Cc1ccc(O)cc1)NCc1c2c(O)c3c(O)c(C)c4c(c3c1O)C(=O)[C@@](C)(O/C=C/[C@H](OC)[C@@H](C)[C@@H](OC(C)=O)[C@H](C)[C@H](O)[C@H](C)[C@@H](O)[C@@H](C)/C=C/C=C(/C)C(=O)N2)O4 please.
1.92

###

# TEST_SUMMARY: Solubility in water at pH 7 by UV-vis spectrophotometric analysis
# Type: physicochemical
REPORTED_ENDPOINT: solubility (µg/mL)
Only the number, expressed in µg/mL, is required.

CHEMICAL_STRING: COC(=O)[C@H](Cc1cnc[nH]1)NCc1c2c(O)c3c(O)c(C)c4c(c3c1O)C(=O)[C@@](C)(O/C=C/[C@H](OC)[C@@H](C)[C@@H](OC(C)=O)[C@H](C)[C@H](O)[C@H](C)[C@@H](O)[C@@H](C)/C=C/C=C(/C)C(=O)N2)O4
solubility [µg/mL]: 150

CHEMICAL_STRING: COC(=O)[C@H](Cc1ccccc1)NCc1c2c(O)c3c(O)c(C)c4c(c3c1O)C(=O)[C@@](C)(O/C=C/[C@H](OC)[C@@H](C)[C@@H](OC(C)=O)[C@H](C)[C@H](O)[C@H](C)[C@@H](O)[C@@H](C)/C=C/C=C(/C)C(=O)N2)O4
solubility [µg/mL]: 70

CHEMICAL_STRING: CCOC(=O)[C@H](Cc1ccccc1)NCc1c2c(O)c3c(O)c(C)c4c(c3c1O)C(=O)[C@@](C)(O/C=C/[C@H](OC)[C@@H](C)[C@@H](OC(C)=O)[C@H](C)[C@H](O)[C@H](C)[C@@H](O)[C@@H](C)/C=C/C=C(/C)C(=O)N2)O4
solubility [µg/mL]: 50

Query compound follows.
Quote solubility reported for CO[C@H]1/C=C/O[C@@]2(C)Oc3c(C)c(O)c4c(O)c(c(CN[C@@H](Cc5ccccc5)C(=O)OC(C)(C)C)c(O)c4c3C2=O)NC(=O)/C(C)=C\C=C\[C@H](C)[C@H](O)[C@@H](C)[C@@H](O)[C@@H](C)[C@H](OC(C)=O)[C@@H]1C please.
30

Every entry's value here was drawn from ChEMBL document CHEMBL3797048.
